Quick reference: ΔTm of the listed items.
Biological target: Mitogen-activated protein kinase kinase kinase 5 (Homo sapiens)
Supply the numeric figure in °C, leaving out any unit text.

> print(dat)
                                   compound  quantitative.result
1  CN(C)c1ccc(CC2C(=O)Nc3ccccc32)cc1 (stereo unspecified)                  1.1
2             O=C1Nc2ccccc2/C1=C\c1ccc[nH]1                  5.2

Exam item: Identify measured ΔTm obtained with Mitogen-activated protein kinase kinase kinase 5 (Homo sapiens) for `C=CNC#N` .
Marked response: 0.4

* * *

Quick record: ΔTm, Serine/threonine-protein kinase pim-3 (Homo sapiens) (UniProt Q86V86).
Supply the numeric figure in °C, leaving out any unit text.

Consider the reported ΔTm for these compounds:
> print(dat)
                                   compound  measurement.unit  quantitative.result
1      O=C1Nc2ccccc2/C1=C1/Nc2ccccc2/C1=N\O                °C                  5.2
2  C#Cc1cccc(Nc2ncnc3cc(OCCOC)c(OCCOC)cc23)c1                °C                 -0.1
3  CC(C)c1nn(-c2c(Cl)cccc2Cl)c2nc(Cc3ccc(OCCO)cc3)[nH]c(=O)c12                °C                 -0.4

Exam item: Look up and report measured ΔTm for this entry: `O=C1Nc2ccccc2/C1=C/c1cnc[nH]1`
Marked response: 3.3

Exam item: Look up and report measured ΔTm for this entry: `COc1ccc(COc2ccc(Cc3cnc(N)nc3N)cc2OC)cc1`
Marked response: 0

Exam item: Look up and report measured ΔTm for this entry: `Nc1cc2ncnc(Nc3cccc(Br)c3)c2cc1N`
Marked response: 3.2

Exam item: Look up and report measured ΔTm for this entry: `O=C1Nc2cc(Br)ccc2/C1=C1/Nc2ccccc2/C1=N\O`
Marked response: -0.1

Exam item: Look up and report measured ΔTm for this entry: `Nc1nc(Nc2ccc(S(N)(=O)=O)cc2)nn1C(=S)Nc1c(F)cccc1F`
Marked response: 1.9

Exam item: Look up and report measured ΔTm for this entry: `C/C(O)=C(\C#N)C(=O)Nc1cc(Br)ccc1Br`
Marked response: 3.8

Exam item: Look up and report measured ΔTm for this entry: `Oc1cc(O)cc(/C=C/c2ccc(O)c(O)c2)c1`
Marked response: 3.5

Exam item: Look up and report measured ΔTm for this entry: `CN[C@@H]1CC2O[C@@](C)([C@@H]1OC)n1c3ccccc3c3c4c(c5c6ccccc6n2c5c31)C(=O)NC4`
Marked response: 17.7

Exam item: Look up and report measured ΔTm for this entry: `O=S(=O)(NCCNC/C=C/c1ccc(Br)cc1)c1cccc2cnccc12`
Marked response: 1

Exam item: Look up and report measured ΔTm for this entry: `CCOc1cc(/C=C(\C#N)C(N)=O)cc(CSc2ccccc2)c1O`
Marked response: 1.5

Exam item: Look up and report measured ΔTm for this entry: `CCN(CC)CCNC(=O)c1c(C)[nH]c(/C=C2\C(=O)Nc3ccc(Cl)cc32)c1C`
Marked response: 4.7

Exam item: Look up and report measured ΔTm for this entry: `Cc1cc2ncc(-c3ccccc3)nc2cc1C`
Marked response: 0.5

Exam item: Look up and report measured ΔTm for this entry: `Clc1ccc(Nc2nnc(Cc3ccncc3)c3ccccc23)cc1`
Marked response: -0.4

Exam item: Look up and report measured ΔTm for this entry: `O=C1Nc2ccc(I)cc2/C1=C\c1cc(Br)c(O)c(Br)c1`
Marked response: 6

Exam item: Look up and report measured ΔTm for this entry: `Cc1ccc(NC(=O)c2ccc(CN3CCN(C)CC3)cc2)cc1Nc1nccc(-c2cccnc2)n1`
Marked response: 0.2
